# assayDetails: chemical genetic growth profiling, strain panel (AID 1159580);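 note: tested at 20 µM; growth read once vehicle control cultures reached saturation at 30 °C; 1 = growth at the plate median or of vehicle wells; lower values mean less growth of the strain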
# conditionSet: S. cerevisiae deletion strains, growth OD, locus YER111C, strain swi4, stronger effect = lower value
Screen size: about 5,500 compounds; about 2,000 (36%) were called active. Roughly 18% stayed inconclusive and do not appear here. The list shows a part of the results.
The following molecules are listed with their measured normalized growth values.
Write no unit; give the number alone.

The cases that follow already have their normalized growth on record.
CC(C)c1c(O)c(-c2cc3c(c(C(C)C)c2O)CCC2C(C)(C)CCC[C@]32C)cc2c1CCC1C(C)(C)CCC[C@]21C (stereo partly specified)
0.992
C[C@]12CCC3c4ccc(O)cc4CCC3C1CC[C@@H]2O (stereo partly specified)
1.03
CCc1cc(C(N)=S)ccn1
0.996
CC(=O)O[C@]1(C(C)=O)CCC2C3C=C(Cl)C4=CC(=O)[C@@H]5C[C@@H]5[C@]4(C)C3CC[C@@]21C (stereo partly specified)
1.02
CC[n+]1c(-c2ccccc2)c2cc(N)ccc2c2ccc(N)cc21
0.939
NC(=NCCC[C@H](N)C(=O)O)N[N+](=O)[O-]
1.04
CC(C)(C)NCC(O)c1cc(Cl)c(N)c(Cl)c1 (stereo unspecified)
1.01
NS(=O)(=O)c1cc(C2(O)NC(=O)c3ccccc32)ccc1Cl (stereo unspecified)
0.997
CCN(Cc1ccncc1)C(=O)C(CO)c1ccccc1 (stereo unspecified)
1.03
CC(C)c1c(O)ccc2c1CCC1C(C)(C)CCC[C@]21C (stereo partly specified)
0.971

What measured normalized growth goes with C[N+](C)(C)CC(O)CC(=O)O (stereo unspecified) ?
0.96

====

# assayDetails: chemical genetic growth profiling, strain panel (AID 1159580);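 note: tested at 20 µM; growth read once vehicle control cultures reached saturation at 30 °C; 1 = growth at the plate median or of vehicle wells; lower values mean less growth of the strain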
# conditionSet: S. cerevisiae deletion strains, growth OD, locus YNR049C, strain mso1, stronger effect = lower value
In all, about 5,500 compounds went through this assay and about 2,000 (36%) were called active. Roughly 18% stayed inconclusive and do not appear here. The list shows a part of the results. Where a SMILES comes first, the peptide text is derived from it.
readout: normalized growth
Write no unit; give the number alone.

The cases that follow already have their normalized growth on record.
CN(C)c1ccc2nc3ccc(=[N+](C)C)cc-3sc2c1
1.05
CCCCCCCCCCCC1=C(O)C(=O)C=C(O)C1=O
0.638
CC(C)N(CCC(C(N)=O)(c1ccccc1)c1ccccn1)C(C)C (centres undefined)
0.0601
CCCCCc1c2c(cc(O)c1C(=O)O)OC(=O)c1c(cc(OC)cc1C(=O)CCCC)O2
0.982
O=C(O[C@@H]1Cc2c(O)cc(O)cc2O[C@@H]1c1cc(O)c(=O)c2c(O)c(O)cc([C@H]3Oc4cc(O)cc(O)c4C[C@H]3OC(=O)c3cc(O)c(O)c(O)c3)c2c1)c1cc(O)c(O)c(O)c1
0.913

What measured normalized growth goes with CC(=O)O[C@@H]1CC2C(C)(C)C(=O)C=C[C@]2(C)C2CC[C@@]3(C)[C@H](c4ccoc4)OC(=O)[C@H]4O[C@]43[C@@]21C (some centres undefined) ?
1.01

Moving on to `CCCCCC(=O)Cc1cc(O)cc(O)c1C(=O)Oc1cc(CC(=O)CCCCC)c(C(=O)O)c(OC)c1`
0.95

Moving on to COC(=O)[C@H](Cc1ccccc1)NC(=O)[C@@H](N)CC(=O)O (H-Asp-Phe-OMe)
1.02

Moving on to CC(CC(C(N)=O)(c1ccccc1)c1ccccc1)N(C)C (centres undefined)
0.976
